Listed compounds paired with reported inhibition
experimental_details: Inhibition of recombinant NDM-1 (unknown origin) using fluorocillin as substrate at 10 uM incubated for 30 mins by fluorescence based assay
experimental_setup: Bacteria

Sample records with inhibition:
O=C(O)COc1cccc2cccnc12 = < 20%
O=[N+]([O-])c1cc(O)c2ncccc2c1 = < 20%
Oc1ccc(F)c2cccnc12 = < 20%
Oc1ccc(Cl)c2cccnc12 = < 20%
O=C(O)c1ccc2c([N+](=O)[O-])cc([N+](=O)[O-])c(O)c2n1 = 90%

Next up:
stdin: Would you kindly share the measured inhibition for "Oc1c(Cl)cc(Cl)c2cccnc12" ?
stdout: 98%

====

experimental_details: Cytotoxicity against human HUVEC cells assessed as metabolic activity measured after 24 hrs by cell-titer blue assay
Assay type: toxicity, cell-based
experimental_endpoint: IC50 at 24 h (µg/mL)
Return type: number; implicit unit µg/mL.

N#CCN(Cc1ccccc1)Cc1cc([N+](=O)[O-])c2cccnc2c1O = 45

Next up:
stdin: Would you kindly share the measured IC50 at 24 h for "O=[N+]([O-])c1ccc(O)c2ncccc12" ?
stdout: 283

====

Listed compounds paired with reported inhibition
Test system: Bacteria
experimental_details: Inhibition of recombinant IMP-1 (unknown origin) using fluorocillin as substrate at 30 uM incubated for 30 mins by fluorescence based assay
Return type: number; implicit unit %.

Sample records with inhibition:
O=C(O)c1ccc2c([N+](=O)[O-])ccc(O)c2n1 = 99
CN(CC#N)Cc1ccc2c([N+](=O)[O-])ccc(O)c2n1 = 78
CCNCc1cc([N+](=O)[O-])c2cccnc2c1O = 92
N#CCN(Cc1ccccc1)Cc1cc([N+](=O)[O-])c2cccnc2c1O = 98

Next up:
stdin: Would you kindly share the measured inhibition for "O=C(O)c1ccc2cccc(O)c2n1" ?
stdout: 95

====

experimental_details: Inhibition of recombinant NDM-1 (unknown origin) using fluorocillin as substrate at 10 uM incubated for 30 mins by fluorescence based assay
experimental_setup: Bacteria
Listed compounds paired with reported inhibition

Nc1ccc2cccc(O)c2n1 = < 20%
CN(CC#N)Cc1cc([N+](=O)[O-])c2cccnc2c1O = < 20%
NC(=O)c1ccc([N+](=O)[O-])c2cccnc12 = < 20%
CN(C)Cc1ccc2c(Cl)cc(Cl)c(O)c2n1 = < 20%
Cc1ccc2c([N+](=O)[O-])cc([N+](=O)[O-])c(O)c2n1 = < 20%

stdin: Would you kindly share the measured inhibition for "O=S(=O)(O)c1ccc(O)c2ncccc12" ?
stdout: < 20%

stdin: Same for "Cc1ccc2cccc(O)c2n1"
stdout: < 20%

stdin: Same for "O=C(c1cc([N+](=O)[O-])c2cccnc2c1O)N1CCOCC1"
stdout: < 20%

stdin: Same for "N#CC1(NC(=O)c2cc([N+](=O)[O-])c3cccnc3c2O)CC1"
stdout: < 20%

stdin: Same for "Nc1ccc2c([N+](=O)[O-])ccc(O)c2n1"
stdout: 46%

stdin: Same for "N#CCN(Cc1ccccc1)Cc1cc([N+](=O)[O-])c2cccnc2c1O"
stdout: 88%

stdin: Same for "N#Cc1ccc2cccc(O)c2n1"
stdout: < 20%

====

Listed compounds paired with reported MIC
Test system: Escherichia coli
experimental_details: Antimicrobial activity against Escherichia coli clinical isolate T2228 expressing VIM-1 assessed as inhibition of bacterial growth by CLSI protocol based broth microdilution assay
Type: functional
Return type: number; implicit unit µg/mL.

Sample records with MIC:
C[C@@H](O)[C@H]1C(=O)N2C(C(=O)O)=C(SCCNC=N)C[C@H]12 [IMIPENEM ANHYDROUS] = 0.008
C[C@@H](O)[C@H]1C(=O)N2C(C(=O)O)=C(S[C@@H]3CN[C@H](C(=O)N(C)C)C3)[C@H](C)[C@H]12 = 0.008
CC(C)(O/N=C(\C(=O)N[C@@H]1C(=O)N2C(C(=O)[O-])=C(C[n+]3ccccc3)CS[C@H]12)c1csc(N)n1)C(=O)O = 0.256
CO/N=C(\C(=O)N[C@@H]1C(=O)N2C(C(=O)O)=C(COC(N)=O)CS[C@H]12)c1ccco1 = 1.02

stdin: Would you kindly share the measured MIC for "CCN1CCN(C(=O)N[C@@H](C(=O)N[C@@H]2C(=O)N3[C@@H]2SC(C)(C)[C@@H]3C(=O)O)c2ccccc2)C(=O)C1=O" ?
stdout: 1.02

====

Listed compounds paired with reported inhibition
experimental_details: Inhibition of recombinant NDM-1 (unknown origin) using fluorocillin as substrate at 30 uM incubated for 30 mins by fluorescence based assay
experimental_setup: Bacteria

Sample records with inhibition:
N#CCNC(=O)c1ccc2cccc(O)c2n1 = < 20%
N#CCN(Cc1ccccc1)C(=O)c1ccc2cccc(O)c2n1 = < 20%
Nc1ccc2cccc(O)c2n1 = < 20%
O=C(O)c1ccc2cccc(O)c2n1 = 100%
CCNCc1cc([N+](=O)[O-])c2cccnc2c1O = 88%

stdin: Would you kindly share the measured inhibition for "N#Cc1ccc2c([N+](=O)[O-])cc([N+](=O)[O-])c(O)c2n1" ?
stdout: < 20%

stdin: Same for "O=[N+]([O-])c1cc([N+](=O)[O-])c2cccnc2c1O"
stdout: < 20%

stdin: Same for "N#CCN(Cc1ccccc1)C(=O)c1ccc2c([N+](=O)[O-])cc([N+](=O)[O-])c(O)c2n1"
stdout: < 20%

stdin: Same for "Nc1c([N+](=O)[O-])cc([N+](=O)[O-])c2cccnc12"
stdout: < 20%

stdin: Same for "CC(=O)Nc1ccc([N+](=O)[O-])c2cccnc12"
stdout: < 20%

stdin: Same for "Cc1cc(C)c2cccnc2c1O"
stdout: < 20%

stdin: Same for "CN(CC#N)Cc1ccc2c([N+](=O)[O-])ccc(O)c2n1"
stdout: 93%

====

Listed molecules paired with reported inhibition
experimental_details: Inhibition of recombinant NDM-1 (unknown origin) using fluorocillin as substrate at 10 uM incubated for 30 mins by fluorescence based assay
experimental_setup: Bacteria

CN(CC#N)Cc1ccc2c([N+](=O)[O-])ccc(O)c2n1 = 47%
CN(CC#N)C(=O)c1ccc2c([N+](=O)[O-])ccc(O)c2n1 = < 20%
O=C(O)c1ccc2cccc(O)c2n1 = 97%
N#CCN(Cc1ccccc1)C(=O)c1ccc2c([N+](=O)[O-])ccc(O)c2n1 = < 20%
O=C(O)c1ccc(O)c2ncccc12 = < 20%

stdin: Would you kindly share the measured inhibition for "Oc1ccc2cccc(O)c2n1" ?
stdout: < 20%

stdin: Same for "Oc1ccc(C(F)(F)F)c2cccnc12"
stdout: < 20%

====

experimental_details: Inhibition of recombinant NDM-1 (unknown origin) using fluorocillin as substrate at 30 uM incubated for 30 mins by fluorescence based assay
experimental_setup: Bacteria
experimental_endpoint: inhibition

O=C(O)c1ccc([N+](=O)[O-])c2cccnc12 = < 20%
O=C(O)c1cc(O)c2ncccc2c1 = < 20%
CN(CC#N)C(=O)c1ccc2c([N+](=O)[O-])cc([N+](=O)[O-])c(O)c2n1 = < 20%
Cc1ccc2c(Cl)cc(Cl)c(O)c2n1 = 91%
O=[N+]([O-])c1ccc(O)c2ccccc12 = < 20%

stdin: Would you kindly share the measured inhibition for "Oc1ccc(C(F)(F)F)c2cccnc12" ?
stdout: < 20%

stdin: Same for "N#CCOc1ccc([N+](=O)[O-])c2cccnc12"
stdout: < 20%

stdin: Same for "N#CC1(NC(=O)c2cc([N+](=O)[O-])c3cccnc3c2O)CC1"
stdout: < 20%

stdin: Same for "N#CC1(NC(=O)c2ccc3c([N+](=O)[O-])ccc(O)c3n2)CC1"
stdout: < 20%

stdin: Same for "Oc1ccc(Cl)c2cccnc12"
stdout: 60%

stdin: Same for "CN(CC#N)Cc1cc([N+](=O)[O-])c2cccnc2c1O"
stdout: 82%

stdin: Same for "O=C(O)CN(CCN(CC(=O)O)CC(=O)O)CC(=O)O"
stdout: 87%

====

Listed compounds paired with reported inhibition
experimental_details: Inhibition of recombinant NDM-1 (unknown origin) using fluorocillin as substrate at 30 uM incubated for 30 mins by fluorescence based assay
experimental_setup: Bacteria
Return type: number; implicit unit %.

N#CCN(Cc1ccccc1)Cc1cc([N+](=O)[O-])c2cccnc2c1O = 96
O=C(c1cc([N+](=O)[O-])c2cccnc2c1O)N1CCOCC1 = 16
O=[N+]([O-])c1ccc(O)c2ncccc12 = 99
N#CCNCc1cc([N+](=O)[O-])c2cccnc2c1O = 98

Next up:
stdin: Would you kindly share the measured inhibition for "Cc1ccc2c([N+](=O)[O-])ccc(O)c2n1" ?
stdout: 35

====

System: Bacteria
experimental_details: Inhibition of recombinant VIM-1 (unknown origin) using fluorocillin as substrate at 3 uM incubated for 30 mins by fluorescence based assay
experimental_endpoint: inhibition

Oc1c(Cl)cc(Cl)c2cccnc12 = 23%
O=C(O)c1ccc2cccc(O)c2n1 = 32%

stdin: Would you kindly share the measured inhibition for "Cc1ccc2c(Cl)cc(Cl)c(O)c2n1" ?
stdout: 20%

stdin: Same for "CCNCc1cc([N+](=O)[O-])c2cccnc2c1O"
stdout: < 20%

stdin: Same for "N#CCN(Cc1ccccc1)Cc1cc([N+](=O)[O-])c2cccnc2c1O"
stdout: 98%
